Assay: Solubility in water at 25 degC sonicated for 10 mins by HPLC method
Format: physicochemical
Measured metric: solubility at 10 min (mM)

Worked cases, solubility at 10 min given:
- Smiles: "COc1ccc2c(c1)[nH]c(=N)c1c3cc(OC)ccc3cn21"
  solubility at 10 min, mM: 13.2
- Smiles: "COc1ccc(OC)c2c1[nH]c(=N)c1c3ccccc3cn21"
  solubility at 10 min, mM: 12.7
- Smiles: "COc1ccc2c(c1)[nH]c(=N)c1c3cc(OC)c(OC)cc3cn21"
  solubility at 10 min, mM: 14.4
- Smiles: "COc1cc2cn3c4ccc(O)cc4[nH]c(=N)c3c2cc1OC"
  solubility at 10 min, mM: 24.5
- Smiles: "CC(=O)O.Cc1cc2cn3c4ccc(O)cc4[nH]c(=N)c3c2cc1C"
  solubility at 10 min, mM: 9.8
- Smiles: "CC(=O)O.COc1cc2cn3c4ccc(O)cc4[nH]c(=N)c3c2cc1OC"
  solubility at 10 min, mM: 14

a: COc1ccc2c(c1)cn1c3ccc(O)cc3[nH]c(=N)c21
b: Cc1cc2cn3c4ccc(O)cc4[nH]c(=N)c3c2cc1C
Compare the recorded solubility at 10 min of a and b ; state which is larger. // return label of chosen record
a
(a: 21.9 mM, b: 14.1 mM)

----------
Species: Homo sapiens
Assay: Binding affinity to human telomeric DNA sequence assessed as change in melting temperature at 5 uM at pH 7.4 by fluorescence melting assay
Measured metric: ΔTm (°C)

Example entries begin here.
- Smiles: "COc1ccc2c(c1)cn1c3ccc(OC)cc3[nH]c(=N)c21"
  ΔTm, °C: 1.2
- Smiles: "Cc1cccc2c1[nH]c(=N)c1c3ccccc3cn21"
  ΔTm, °C: 1.8
- Smiles: "COc1ccc2c(c1)[nH]c(=N)c1c3ccccc3cn21"
  ΔTm, °C: 1.4
- Smiles: "COc1ccc2c(c1)[nH]c(=N)c1c3cccc(F)c3cn21"
  ΔTm, °C: 1.8

P: N=c1[nH]c2cc(Cl)c(Cl)cc2n2cc3ccccc3c12
Q: COc1ccc2cn3c4ccc(O)cc4[nH]c(=N)c3c2c1
R: Cc1cc2[nH]c(=N)c3c4ccccc4cn3c2cc1C
S: N=c1[nH]c2ccccc2n2cc3ccccc3c12
Hey, can you sort those compounds up there by ΔTm, smallest first? Please reply with the labels ordered as requested. Many thanks.
P, S, Q, R

----------
Assay: Growth inhibition of human NCI60 cells
Assay type: functional
Experimental conditions: Homo sapiens, NCI60
Measured metric: GI50 (µM)
# number only, unit µM dropped from output

Some solved cases for reference:
- Smiles: "COc1ccc2c(c1)cn1c3ccc(O)cc3[nH]c(=N)c21"
  GI50 [µM]: 11
- Smiles: "COc1ccc2cn3c4ccc(O)cc4[nH]c(=N)c3c2c1"
  GI50 [µM]: 12.3
- Smiles: "COc1ccc2[nH]c(=N)c3c4ccccc4cn3c2c1"
  GI50 [µM]: 1.55
- Smiles: "COc1ccc2c(c1)[nH]c(=N)c1c3cccc(F)c3cn21"
  GI50 [µM]: 10.7

Need GI50, item `COc1ccc(OC)c2c1[nH]c(=N)c1c3ccccc3cn21`
2.29

----------
Assay: Binding affinity to Pu24 DNA (unknown origin) assessed as change in melting temperature at 5 uM at pH 7.4 by fluorescence melting assay
Measured metric: ΔTm (°C)

- Smiles: "COc1ccc2c(c1)[nH]c(=N)c1c3cc(C)c(C)cc3cn21"
  ΔTm / °C: 2.1

1: Cc1cccc2c1[nH]c(=N)c1c3ccccc3cn21
2: COc1ccc2cn3c4ccc(O)cc4[nH]c(=N)c3c2c1
Name the one with the greater ΔTm value, either 1 or 2 as given. Give the label under which the chosen entry appears.
1
(1: 1.5 °C, 2: 0.2 °C)

----------
Assay: Binding affinity to double stranded DNA (unknown origin) assessed as change in melting temperature at 5 uM at pH 7.4 by fluorescence melting assay
Measured metric: ΔTm (°C)

- Smiles: "COc1ccc2c(c1)[nH]c(=N)c1c3ccccc3cn21"
  ΔTm [°C]: 0.2
- Smiles: "COc1ccc2cn3c4ccc(O)cc4[nH]c(=N)c3c2c1"
  ΔTm [°C]: 0.2
- Smiles: "N=c1[nH]c2cc(Cl)c(Cl)cc2n2cc3ccccc3c12"
  ΔTm [°C]: 0
- Smiles: "Cc1cc2[nH]c(=N)c3c4ccccc4cn3c2cc1C"
  ΔTm [°C]: 0.3
- Smiles: "Cc1cccc2c1[nH]c(=N)c1c3ccccc3cn21"
  ΔTm [°C]: 0.2

a: N=c1[nH]c2ccccc2n2cc3ccccc3c12
b: COc1ccc2c(c1)cn1c3ccc(OC)cc3[nH]c(=N)c21
c: COc1ccc2c(c1)[nH]c(=N)c1c3cccc(F)c3cn21
Order the entries by their reported ΔTm, beginning at the minimum. Answer by writing out the labels in the requested order.
b, c, a

----------
Assay: Solubility in water at 25 degC sonicated for 10 mins by HPLC method
Assay type: physicochemical
Measured metric: solubility at 10 min (mM)

Below, each entry is followed by its recorded solubility at 10 min result.
- Smiles: "COc1ccc2c(c1)[nH]c(=N)c1c3cc(C)c(C)cc3cn21"
  Measured metric: "solubility at 10 min"
  Assay value: 7.8
- Smiles: "CC(=O)O.COc1ccc2c(c1)cn1c3ccc(O)cc3[nH]c(=N)c21"
  Measured metric: "solubility at 10 min"
  Assay value: 10.9
- Smiles: "COc1ccc2[nH]c(=N)c3c4ccccc4cn3c2c1"
  Measured metric: "solubility at 10 min"
  Assay value: 13.8
- Smiles: "COc1ccc2cn3c4ccc(O)cc4[nH]c(=N)c3c2c1"
  Measured metric: "solubility at 10 min"
  Assay value: 22.4
- Smiles: "CC(=O)O.N=c1[nH]c2cc(O)ccc2n2cc3c(F)cccc3c12"
  Measured metric: "solubility at 10 min"
  Assay value: 12.7
- Smiles: "COc1ccc2c(c1)cn1c3ccc(OC)cc3[nH]c(=N)c21"
  Measured metric: "solubility at 10 min"
  Assay value: 13

1: COc1ccc2c(c1)[nH]c(=N)c1c3cccc(F)c3cn21
2: CC(=O)O.COc1ccc2c(c1)[nH]c(=N)c1c3cc(OC)c(OC)cc3cn21
3: COc1ccc2c(c1)[nH]c(=O)c1c3ccccc3cn21
4: N=c1[nH]c2cc(O)ccc2n2cc3c(F)cccc3c12
Which order do these items take when sorted by rising solubility at 10 min? List them. Respond with an ordered listing of the labels, as requested.
3, 2, 1, 4

----------
Assay: Growth inhibition of human NCI60 cells
Type: functional
Experimental conditions: Homo sapiens, NCI60
Parameter: GI50. Scope: all listed entries.

Reference set (3 entries):
- Smiles: "COc1ccc2c(c1)[nH]c(=N)c1c3cc(OC)ccc3cn21"
  GI50: "< 1.05 µM"
- Smiles: "COc1cc2cn3c4ccc(O)cc4[nH]c(=N)c3c2cc1OC"
  GI50: "< 3.24 µM"
- Smiles: "COc1ccc2c(c1)[nH]c(=N)c1c3cc(OC)c(OC)cc3cn21"
  GI50: "> 15.5 µM"

Quick one: GI50 for `COc1ccc2c(c1)cn1c3ccc(OC)cc3[nH]c(=N)c21` ?
< 1.2 µM

Now consider `COc1ccc2c(c1)[nH]c(=N)c1c3cc(C)c(C)cc3cn21` and answer again.
< 3.8 µM

----------
Assay: Binding affinity to Pu24 DNA (unknown origin) assessed as change in melting temperature at 5 uM at pH 7.4 by fluorescence melting assay
Measured metric: ΔTm (°C)

- Smiles: "COc1ccc2c(c1)[nH]c(=N)c1c3cccc(F)c3cn21"
  ΔTm [°C]: 2.1

I: Cc1cc2[nH]c(=N)c3c4ccccc4cn3c2cc1C
II: COc1ccc2c(c1)cn1c3ccc(OC)cc3[nH]c(=N)c21
Which value of ΔTm is numerically greater: that of I or that of II ? Write down the label attached to your selection.
I

----------
Assay: Binding affinity to Pu24 DNA (unknown origin) assessed as change in melting temperature at 5 uM at pH 7.4 by fluorescence melting assay
Measured metric: ΔTm (°C)

- Smiles: "COc1ccc2c(c1)[nH]c(=N)c1c3ccccc3cn21"
  Measured metric: "ΔTm"
  Assay value: 2
- Smiles: "N=c1[nH]c2cc(Cl)c(Cl)cc2n2cc3ccccc3c12"
  Measured metric: "ΔTm"
  Assay value: 1.1
- Smiles: "N=c1[nH]c2ccccc2n2cc3ccccc3c12"
  Measured metric: "ΔTm"
  Assay value: 1.5
